target.under.test: T1, recombinant human TL1A (human, UniProt O95150 71-251)
T1 construct: The ELISA method says only 'recombinant TL1A' coated on plates; homotrimeric cytokine; also called TNFSF15; recombinant TL1A
T1 chain: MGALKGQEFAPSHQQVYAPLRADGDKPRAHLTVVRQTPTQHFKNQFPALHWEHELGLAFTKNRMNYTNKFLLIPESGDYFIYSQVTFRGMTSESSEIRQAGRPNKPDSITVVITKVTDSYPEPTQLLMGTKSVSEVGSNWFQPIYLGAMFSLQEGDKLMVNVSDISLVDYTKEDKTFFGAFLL
assay.text: competition ELISA on coated recombinant TL1A; competitor biotinylated TL1A-0002
pIC50: −log10 of the molar value.
A collection of binders and their measured pIC50

{"columns": ["binder", "pIC50"],
 "data": [
  ["TL1A-0280 (antibody, human IgG1, kappa, V domains shown, human IgG1 effector-function-minimized / human kappa) VH: QVQLVQSGAEVKKPGASVKVSCKASGYDFSYYGISWVRQAPGQGLEWMGWISTYNTNTHYAPSLQGRVTMTTDTSTSTAYMELRSLRSDDTAVYYCARESYYGSGAFRGGMDVWGQGTTVTVSS VL: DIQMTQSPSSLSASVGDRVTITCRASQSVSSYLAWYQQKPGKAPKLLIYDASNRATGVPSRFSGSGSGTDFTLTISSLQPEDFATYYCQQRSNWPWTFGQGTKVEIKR", 8.09],
  ["TL1A-0288 (antibody, human IgG1, kappa, V domains shown, human IgG1 effector-function-minimized / human kappa) VH: QVQLVQSGAEVKKPGASVKVSCKASGYDFTYYGVSWVRQAPGQGLEWMGWISTYNTGTHYAPSLQGRVTMTTDTSTSTAYMELRSLRSDDTAVYYCARESYYGSGAFRGGMDVWGQGTTVTVSS VL: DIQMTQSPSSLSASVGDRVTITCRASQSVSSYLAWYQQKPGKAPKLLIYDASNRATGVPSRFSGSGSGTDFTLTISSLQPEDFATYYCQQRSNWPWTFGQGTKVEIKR", 8.10]
]}

Values were extracted from patent US20240059799A1.
